Reference source: PubChem BioAssay AID686970

- measurement.description: qHTS for induction of synthetic lethality in tumor cells producing 2HG: qHTS for the HT-1080-NT fibrosarcoma cell line;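 note: NT is the 2HG producing partner of a matched IDH1 knockdown line; nearly all actives have a fitted effect of over 55% in size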
- test.conditions: HT-1080-NT fibrosarcoma viability, CellTiter-Glo ATP luminescence, 48 h; series mostly up to 46.1 µM
About 6,000 (1.7%) of roughly 360,000 compounds were called active. Another 8% or so got no clear call; they are omitted. Calls come from the whole dose curve; as a rule, active = well fitted cell-killing curve with a large enough effect; inconclusive = small, poorly fitted or top-dose-only effect, or effect the other way; inactive = flat fitted curve, though single readings scatter. The full list was thinned out, with actives kept by preference.
Outcome codes: t = active, f = inactive

>>> category_label("C#CCNc1ccc(C(=O)OCC)cc1")
"f"
>>> category_label("C=C1C(=O)OC2C1CCC(C)=CCCC1(C)OC21 (stereo not drawn)")
"t"
>>> category_label("O=C(OC12CC3CC(CC(C3)C1)C2)c1ccc(NCc2cc(O)ccc2O)cc1")
"t"

====

- measurement.description: qHTS for induction of synthetic lethality in tumor cells producing 2HG: qHTS for the HT-1080-NT fibrosarcoma cell line;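 note: NT is the 2HG producing partner of a matched IDH1 knockdown line; nearly all actives have a fitted effect of over 55% in size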; note: potency is the fitted concentration of half-maximal effect
- test.conditions: HT-1080-NT fibrosarcoma viability, CellTiter-Glo ATP luminescence, 48 h; series mostly up to 46.1 µM
Hit rate of the full screen: of about 360,000 compounds, about 6,000 (1.7%) were called active. Inconclusive results (about 8%) are left out. For the sample, actives were picked, then their nearest neighbours and some compounds at random.
property.label: Potency

>>> observed_value("CCN(CC)CCNc1ccc(Cl)cc1[N+](=O)[O-]")
"inactive"
>>> observed_value("Cc1cccc(C)c1NC(=O)CN(C)C(=O)CCC(=O)c1ccccc1")
"inactive"
>>> observed_value("CC(C)CCOc1ccc(C(=O)Nc2cc(S(=O)(=O)N3CCOCC3)ccc2N2CCOCC2)cc1")
"inactive"
>>> observed_value("COC(=O)c1sc(-c2ccc(C(C)(C)C)cc2)cc1NC(=O)/C=C/C(=O)O")
"11.6 µM (active)"
>>> observed_value("CCCNC(=O)C1(C)CCN1C(=O)C1(c2ccccc2)CC1 (configuration not stated)")
"inactive"
>>> observed_value("COc1ccc(C(C(=O)NC2CCCCC2)N(C(=O)CCl)c2ccccc2Cl)cc1 (configuration not stated)")
"18.4 µM (active)"
>>> observed_value("CC1(C(=O)O)CCN1C(=O)/C=C/c1ccccc1 (configuration not stated)")
"inactive"
>>> observed_value("COc1ccc(CN2C(=O)C(CC(=O)NCCN3CCOCC3)CC(C(=O)N(C(C)C)C(C)C)=C2C)cc1 (configuration not stated)")
"inactive"
>>> observed_value("COc1ccc(C(=O)C2CCCN(Cc3ccc4nonc4c3)C2)c(C)c1 (configuration not stated)")
"inactive"
>>> observed_value("COc1ccc(CN2C(=O)C(CC(=O)NCc3cccc4ccccc34)CC(C(=O)N3CCOCC3)=C2C)cc1 (configuration not stated)")
"inactive"
>>> observed_value("Cc1cc2nc(-c3ccco3)c(Cc3cccc(F)c3)n2c(C)c1Br")
"20.6 µM (active)"
>>> observed_value("Cc1cc(Nc2ccc(C)c(C)c2)n2ncnc2n1")
"inactive"
>>> observed_value("CC(=O)c1nn(-c2ccccc2)c(=Nc2ccccc2)cc1C")
"inactive"
>>> observed_value("COc1ccc(C(=O)C2CCCN(Cc3cccn3-c3ccccn3)C2)c(C)c1 (configuration not stated)")
"8.2 µM (active)"
>>> observed_value("COc1cc2nc(N3CCCN(C)CC3)nc(NC3CC3)c2cc1OC")
"inactive"
>>> observed_value("CC(C)(C)c1ccc(/C=C/C(=O)Nc2ncccn2)cc1")
"inactive"
>>> observed_value("Cc1c(C(=O)NCc2ccc(C#N)cc2)sc(=O)n1Cc1ccc(C(=O)N(C)C)cc1")
"inactive"
